experiment: folding enthalpy; higher = less favourable; fluorescence melt of hairpins on a sequencing array, two-state fit; details: sodium 0.088 M
Think of -30 kcal/mol as a floor: if folding enthalpy stands on it or above, it is Met; beneath it, Not met.

Enquiry: In plain terms: is recorded folding enthalpy at least -30 kcal/mol for GCACTGCGAAAGCACAGC ((..(((....)))..)) ?
Return: Met

Enquiry: Tell me whether folding enthalpy is at least -30 kcal/mol here: GCGGACGAAAGTCTTCGC ((((((....)))..)))
Return: Met

Enquiry: Evaluate CGCGGAACATTCCGCG ((((((....)))))) : folding enthalpy at minimum -30 kcal/mol?
Return: Not met

Enquiry: Identify whether the reported folding enthalpy of the following sequence is -30 kcal/mol or greater: GCAGGTGCGAAAGCATGC (((..(((....))))))
Return: Met

Enquiry: Is folding enthalpy at least -30 kcal/mol? Consider GCTCGGGGAAACCCGAAC (.(((((....))))).)
Return: Met

Enquiry: Tell me whether folding enthalpy is at least -30 kcal/mol here: GCGTCGACACGC ((((....))))
Return: Met

Enquiry: Is folding enthalpy at least -30 kcal/mol? Consider GAGCGTGGAAACACACCC (.(.(((....))).).)
Return: Met

Enquiry: State whether the measured folding enthalpy reaches -30 kcal/mol, counting equality as reaching it, for GATCCCTAATGGGATC ((((((....))))))
Return: Not met

Enquiry: Is it the case that GGTTCGGCGAAAGCCACC (((..(((....)))))) has folding enthalpy reaching or exceeding -30 kcal/mol?
Return: Met

Enquiry: Would you say GACATGGAAACATGTC ((((((....)))))) shows folding enthalpy at minimum -30 kcal/mol?
Return: Not met

Enquiry: Entry GTGTTGGGAAACCAATAC ((.((((....)))).)) : is its folding enthalpy no less than -30 kcal/mol?
Return: Not met

Enquiry: Dear colleague, could you confirm whether GGTGCTGGAAACAGTGCC ((..(((....)))..)) has folding enthalpy at or above -30 kcal/mol?
Return: Not met

Enquiry: Is folding enthalpy at least -30 kcal/mol? Consider GTGCTCGGAAACGAGTAC ((.((((....)))).))
Return: Not met

Enquiry: Entry GTGGGACGAAAGTCTCAC (((.(((....))).))) : is its folding enthalpy no less than -30 kcal/mol?
Return: Not met

Enquiry: Please indicate if the recorded folding enthalpy for GCGTCCCACGC ((((...)))) meets or exceeds -30 kcal/mol.
Return: Met

Enquiry: folding enthalpy >= -30 kcal/mol for GATCTCGATAGAGATC ((((((....)))))) ?
Return: Not met

Enquiry: # bool: folding enthalpy of GATCAGGGGTCTGATC ((((((....)))))) >= -30 kcal/mol
Return: Not met

Enquiry: Check this sequence for folding enthalpy at or above -30 kcal/mol: GGTGTGGGAAACCGCACC ((((.((....)).))))
Return: Not met

Enquiry: Identify whether the reported folding enthalpy of the following sequence is -30 kcal/mol or greater: GAGGCTACGAAAGTACTC (((..(((....))))))
Return: Met

Enquiry: # bool: folding enthalpy of GTATGGGGAAACCTGTAC (((..((....))..))) >= -30 kcal/mol
Return: Met

Enquiry: API: above_or_equal(metric=folding enthalpy, cutoff=-30 kcal/mol) for item GCGTTAAGACGC ((((....))))
Return: Met

Enquiry: API: above_or_equal(metric=folding enthalpy, cutoff=-30 kcal/mol) for item GGCTCCGAAAGGAACGCC ((((((....)))..)))
Return: Met

Enquiry: Is it the case that TATACGAAAGTATA (((((....))))) has folding enthalpy reaching or exceeding -30 kcal/mol?
Return: Met

Enquiry: Threshold query (folding enthalpy >= -30 kcal/mol) on GACACACGAAAGTGGTC (((.(((....))))))
Return: Met

Enquiry: Determine whether this sequence has folding enthalpy no lower than -30 kcal/mol: GGTGTGGGAAACTACACC (((((.(....).)))))
Return: Not met
